Entries and their measured Human GIPR cAMP EC50, HEK293T follow.
Biological target: T1, full-length human GIPR with an N-terminal FLAG tag (human, UniProt P48546 22-466)
T1 sequence (looked up): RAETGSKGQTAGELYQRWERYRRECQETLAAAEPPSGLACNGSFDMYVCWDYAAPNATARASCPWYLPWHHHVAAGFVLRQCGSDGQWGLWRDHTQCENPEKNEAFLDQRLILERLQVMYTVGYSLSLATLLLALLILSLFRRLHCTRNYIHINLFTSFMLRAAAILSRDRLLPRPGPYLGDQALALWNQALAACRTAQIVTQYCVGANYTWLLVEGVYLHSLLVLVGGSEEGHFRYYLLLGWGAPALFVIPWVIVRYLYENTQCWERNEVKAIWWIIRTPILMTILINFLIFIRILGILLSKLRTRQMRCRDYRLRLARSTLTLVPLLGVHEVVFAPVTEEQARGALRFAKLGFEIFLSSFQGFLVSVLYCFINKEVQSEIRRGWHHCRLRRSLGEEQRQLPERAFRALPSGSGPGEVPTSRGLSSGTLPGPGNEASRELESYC
Experiment: cell-based or functional assay
Starred links: 1 amine or outer side, 2 acyl side, 3 side chain; linkers in the order of their positions; H or OH if unused. Non-standard residues stand in square brackets, D forms with d. Groups on a side chain read outwards from the residue. No end group written: not given here. *: point of attachment. C17 diacid = O=C(O)CCCCCCCCCCCCCCCC(=O)*; γGlu = O=C(O)[C@H](CCC(=O)[*:2])N[*:1]; NMeY = CN[C@@H](Cc1ccc(O)cc1)C(=O)O; AEEA = NCCOCCOCC(=O)O; Aib = CC(C)(N)C(=O)O
endpoint.name: Human GIPR cAMP EC50, HEK293T (pM)

[NMeY][Aib]EGTFISDYSIALDR[Aib]AQ[Aib]K([AEEA-AEEA-γGlu-γGlu-C17 diacid])FVNWLLAQRG-OH [Compound No. 36] ... 0.7
YXEGTFISDYSIXXDRXAQXDFVNWLLAQSG (N-methyl Tyr 1; Aib at 2,13,17,20; Lys(G5-C18 diacid) at 14; C-terminal OH) [Compound No. 53] ... 0.5
YXEGTFISDYSIAXDRXAQXDFVNWLLAQRG (N-methyl Tyr 1; Aib at 2,17,20; Lys(G5-C18 diacid) at 14; C-terminal OH) [Compound No. 63] ... 0.2

Value source: patent US20230143604A1
